Test system: MDA-MB-231 breast
experiment-summary: NCI-60 one-dose screen, 48 h (100 = growth as untreated, 0 = no growth, -100 = all killed)
experimental-setup: 10 µM unless noted
The panel holds about 83,000 compounds, 20% with a hit somewhere; the sample as a whole holds those more often.
Mark Y for reported growth of 50% or greater; mark N for anything smaller.

Hello, I need to know if Nc1nc(N)c2cc(CNc3ccc(C(=O)NC(CC(=O)O)C(=O)O)cc3)ccc2n1 (stereo not given) has measured growth not below 50%. Thanks!
Y

// inclusive: growth at least 50%? input: Cc1cc(O)cc(-c2c(-c3ccnc(-c4cccnc4)c3)cnn2C)c1
Y

Decide: is the reported value of growth for CC/C(=C(\c1ccc(OCCN2CCCCCCC2)cc1)c1ccc(OC(=O)C2CCCCC2)cc1)c1ccc(Cl)cc1 equal to or greater than 50%?
Y

# check: growth of O=C(NCCO)Nc1ccc(-c2nc(N3CCOCC3)c3cccn3n2)cc1 is greater than or equal to 50%
N

Decide: growth of CN(C)CCOC(=O)Nc1nc2ccc(Sc3ccccc3)cc2[nH]1 >= 50%?
N

====

Tested on: SK-MEL-28 melanoma
experiment-summary: NCI-60 one-dose screen, 48 h (100 = growth as untreated, 0 = no growth, -100 = all killed)
experimental-setup: 10 µM unless noted
Experimental: Growth inhibition of the SK-MEL-28 human tumor cell line is measured as a screen for anti-cancer activity. Cells are grown in 96 well plates and exposed to the test compound for 48 hours. Compounds are tested at a single concentration, which is 10^-5 M for most compounds. The reported endpoint is percent growth (GI% or GIPRCNT), where numbers from 0 - 100% represent growth inhibition, and numbers from -100% - 0 represent cell death. For example, a value of 40 represents 60% growth inhibition. […]
Compounds without any hit were thinned out: in the full panel of roughly 83,000, 20% have a hit.
assay-readout: growth (%)
Your answer is read as %, so omit the unit and give the number.

growth recorded for this molecule, CC(C)(C)OC(=O)N1CCC(O)[C@@H](O[Si](c2ccccc2)(c2ccccc2)C(C)(C)C)[C@H]1/C=C/c1ccccc1 (stereo not given in full) , is 65.1

Summary for this molecule, Cc1ccc2oc(=O)cc(-c3cc(-c4cc5ccccc5oc4=O)nc(N)c3C#N)c2c1 : growth is 76.7

Recorded result, O=c1sn(-c2cccc3ccccc23)c(=O)n1Cc1ccccc1 , growth: 114

Consider CSc1nc2ncnc(SC)c2[nH]1 . Its measured growth is 107

For record Cc1sc2c(c1C)c(=O)nc1c(-c3nc(-c4ccccc4)cs3)n[nH]n12 the listed growth is 106

====

Tested on: OVCAR-4 ovarian
experiment-summary: NCI-60 one-dose screen, 48 h
experimental-setup: 10 µM unless noted
About 83,000 compounds went through this panel and 20% of them were active in at least one assay; those are over-represented in the sample as a whole. The source made the active and inactive calls. Rule for the calls: active = growth percent below 10; inactive = the rest.
A correct response names exactly one class from true (1) for active, false (0) for inactive

Field: outcome | Entry: C[C@@H]1COC(Nc2ccc3ncnc(Nc4ccc(OCc5nccs5)c(Cl)c4)c3c2)=N1
false (0)

What call does the record list for O=C1C=CC2(NN=C(c3ccccc3)N2c2cccc(Cl)c2)C(Cl)=C1 (stereo not given) ?
false (0)

Could you kindly confirm the outcome this assay logged for COc1ccc(F)c(F)c1C(=O)c1cnc(NC2CCN(S(C)(=O)=O)CC2)nc1N ?
true (1)

I would be grateful if you could indicate the recorded call for COc1ncc(-c2ccc3nccc(-c4ccnnc4)c3c2)cc1NS(=O)(=O)c1ccc(F)cc1F .
true (1)

Please state the recorded outcome for this compound: COC(=O)c1ccc2c(C(=Nc3ccc(N(C)C(=O)CN4CCN(C)CC4)cc3)c3ccccc3)c(O)[nH]c2c1
false (0)

====

System: ACHN renal
experiment-summary: NCI-60 one-dose screen, 48 h
experimental-setup: 10 µM unless noted
This is part of a sample that, as a whole, favours compounds with a hit. Of some 83,000 tested, about 20% had one in any assay. Activity calls are given as the source filed them. The calls were made as follows: active = growth percent below 10; inactive = the rest.
Select the matching outcome among active, inactive

Hello, I am checking results. What call was entered for COc1cc2cc(NCc3ccc(Cl)cc3)nc(C)c2cc1OC ?
inactive

What outcome does the record of this test show for O=c1sn(-c2cccc3ccccc23)c(=O)n1Cc1ccccc1 ?
inactive

What call does the record list for Nc1cc(C(F)(F)F)c(-c2cc(N3CCOCC3)nc(N3CCOCC3)n2)cn1 ?
active

Could you please tell me the result logged for CC1(COc2ccc3c(c2)ncn3-c2ccc3cccc(N4CCC(N)CC4)c3n2)COC1 in this assay?
active

What call does the record list for COC1CCC(N2C(=O)CNc3ncc(-c4ccc(C(C)(C)O)nc4)nc32)CC1 (stereo not given) ?
active

Tell me the recorded outcome of this test for c1cn2cc(-c3ccc4cn[nH]c4c3)nc(Nc3ccc(N4CCOCC4)cc3)c2n1 .
inactive

Assay outcome for CN1CCN(c2nc(NCCNc3ccnc4cc(Cl)ccc34)c3ccccc3n2)CC1 : what was it?
active

Recorded test call requested for Cn1cnc2c(F)c(Nc3ccc(Br)cc3Cl)c(C(=O)NOCCO)cc21
inactive

Would you mind telling me which call this test gave C[C@H](NC(=O)c1c(N)nn2cccnc12)c1cc2cccc(C#Cc3cnn(C)c3)c2c(=O)n1-c1ccccc1 ?
inactive

Dear all, I need the recorded test outcome for COc1ccc2c(CCCC(c3ccccc3)c3ccccc3)c3[n+](cc2c1OC)CCc1cc2c(cc1-3)OCO2 , thank you.
inactive

Please indicate how the test categorized Ic1ccccc1-c1ccccc1 .
inactive

Give the logged outcome of this assay for the following compound: Cc1ccc(NC(=O)Nc2ccc(Nc3ncnc4sc5c(c34)CCOC5)cc2)cc1Cl
inactive

Recorded call for Cc1nc2cc(-c3nn(C(C)C)c4ncnc(N)c34)ccc2o1 ?
active

Record request — test call for COc1cc(NC2CCC(=O)N2c2ccc(Cl)cc2Cl)cc(OC)c1OC (stereo not given)
inactive

Could you kindly confirm the outcome this assay logged for CN1CCN(c2ccc(OC(F)(F)F)c(Nc3ncc4c(n3)-c3c(c(C(N)=O)nn3CCO)CC4)c2)CC1 ?
inactive

Lab log entry: CCc1nc2cc(/C=C/C(=O)NO)c(F)cc2c(=O)n1CCc1ccccc1 — outcome as called in the assay?
active

Could you kindly confirm the outcome this assay logged for C=CCn1c(=O)c2cnc(Nc3ccc(N4CCN(C)CC4)cc3)nc2n1-c1cccc(C(C)(C)O)n1 ?
inactive

Recorded call for Nc1c(C(=O)c2ccccc2)sc2nc(-c3cccs3)cc(-c3cccs3)c12 ?
inactive

Each compound tested received a call. Report the one for C=CC[n+]1c(/C=C2\Sc3ccccc3N2C)sc(-c2ccccc2)c1-c1ccccc1 .
active

Which outcome did this test record for the compound CC/C(=C(/c1ccc(Cl)cc1)c1ccc(OCCN2CCCCC2)cc1)c1ccc(Cl)cc1 ?
inactive

====

System: UO-31 renal
experiment-summary: NCI-60 one-dose screen, 48 h
experimental-setup: 10 µM unless noted
Compounds without any hit were thinned out: in the full panel of roughly 83,000, 20% have a hit. Calls of active or inactive are those of the source. How the source made its calls: active means growth percent below 10; inactive means the rest.
Your response should consist of one outcome taken from true for active, false for inactive

Per the assay record, what outcome was assigned to Cc1cc(C(O)CN(C)C)cc2c1ccc1cc(C(C)C)ccc12 (centres undefined) ?
false

Please let me know the test result on file for CC#CC(=O)N1CCC[C@H]1c1nc(-c2ccc(C(=O)Nc3ccccn3)cc2)c2c(N)nccn12 .
false

Kindly provide the recorded test outcome for the following compound: CC(C)OP(=O)(CCC(=O)c1c[nH]c2ccccc12)OC(C)C
false

Look up the recorded call for Cn1cc(-c2[nH]c3cc(NC(=O)[C@H](N)C4CCCCC4)cc4c3c2C=NNC4=O)cn1 in this test.
true

Record lookup: outcome of this test for COc1cc2ncnc(Nc3ccc(O)cc3)c2cc1OC ?
false

Outcome? CC1(O)CC(c2nc(-c3ccc4ccc(-c5ccccc5)nc4c3)c3c(N)nccn23)C1 (centres undefined)
true

Name the outcome recorded for COc1cc2ncnc(Nc3cccc(Cl)c3F)c2cc1OC(=O)N1CCN(C)C[C@H]1C in the assay.
false

// outcome(item) with item = COc1ccc(-n2c(=O)c3ccccc3n(Cc3ccc(C(=O)NO)cc3)c2=O)cc1
false

Which outcome was entered for the compound N#Cc1c(-c2ccc(Cl)cc2)csc1NC(=O)Nc1cccc(C(F)(F)F)c1 in this test?
true

Could you kindly confirm the outcome this assay logged for C=C1C(=O)O[C@H]2[C@H]1CC/C(Cn1cc(-c3cc(C)c(C)cc3C)nn1)=C\CC[C@@]1(C)O[C@@H]21 ?
true

State the result this test recorded for CN(C[C@@H]1COCCO1)S(=O)(=O)Nc1ccc2ccc3ncc(-c4cnn(C)c4)cc3c(=O)c2c1 .
true

Just curious, what result did CCOc1cc2ncc(C#N)c(Nc3ccc(OCc4ccccn4)c(Cl)c3)c2cc1NC(=O)/C=C/CN(C)C get here?
true

// outcome(item) with item = CN(c1ncccc1CNc1nc(Nc2ccc3c(c2)CC(=O)N3)ncc1C(F)(F)F)S(C)(=O)=O
true

Called result for CC(C)(O)CC(=O)NCCn1ccc2ncnc(Nc3ccc(Oc4cccc(C(F)(F)F)c4)c(Cl)c3)c21
true

Which outcome was entered for the compound C=CC(=O)Nc1cccc(Nc2nc(Nc3ccc(N4CCN(C(C)=O)CC4)cc3OC)ncc2C(F)(F)F)c1 in this test?
true

I'd appreciate the recorded outcome for O=C1C=CC2(NN=C(c3ccccc3)N2c2ccccc2)c2cccc(O)c21 (centres undefined) from this test.
false

# fetch the recorded call for COc1ccc(Br)cc1NC(=O)Nc1cccc2c1ccn2Cc1ccnc(N)c1 here
true

Each compound tested received a call. Report the one for CCN(CC)CCCC(C)Nc1cc(-c2ccc(C(F)(F)F)cc2)c(C#N)c2nc3ccccc3n12 (centres undefined) .
true

Record request — test call for CCOc1cc2ncc(C#N)c(Nc3ccc(F)c(Cl)c3)c2cc1NC(=O)/C=C/CN(C)C
true

Look up the recorded call for CCc1nc2ccc(Cc3ccc(C(=O)NO)cc3)cc2c(=O)n1CCc1ccccc1 in this test.
true

How was Cc1nn(-c2nc3ccccc3[nH]2)c2c1C(c1ccc(O)cc1)CC(=O)N2 (centres undefined) classified in this test?
false

Any idea what this test logged for CCCCCCCCCNCCCCCCCCC ?
false

How did this test come out for CCc1ccc(/C=C/c2ccc(O)c3ncccc23)[n+](C)c1 ?
false

Look up the recorded call for NS(=O)(=O)c1ccc(CCN2C(=O)/C(=C\c3ccc(Cl)cc3)C=C2c2ccc3ccccc3c2)cc1 in this test.
false

What was the test verdict on Nc1c(Cl)cccc1[N+](=O)[O-] ?
false

// return assay outcome for COc1ccc(F)c(F)c1C(=O)c1cnc(NC2CCN(S(C)(=O)=O)CC2)nc1N
true

Just curious, what result did O=C1NC(=O)/C(=C/c2ccc3nccc(-c4ccncc4)c3c2)S1 get here?
true

For this compound, state the assay outcome: Cn1ccnc1C(=O)/C=C/c1ccc(CC(=O)Nc2ccc(S(F)(F)(F)(F)F)cc2)cc1
true

What classification did O=C(c1c(F)ccc(NS(=O)(=O)N2CC[C@@H](F)C2)c1F)c1c[nH]c2ncc(-c3cnc(C4CC4)nc3)cc12 end up with in this test?
false

Assay outcome for CN1CCC(CNc2ccc3ncc(-c4cccc(OC(F)(F)F)c4)n3n2)CC1 : what was it?
true

Kindly provide the recorded test outcome for the following compound: COc1cccc2cc(-c3nc(C4CCC(C(=O)O)CC4)n4ncnc(N)c34)[nH]c12 (centres undefined)
true

How did this test come out for O=C(CNc1nc(-c2ccc(Cl)cc2)cs1)Nc1ccc(-c2nc3ccccc3s2)cc1 ?
false

Tell me the assay call for CCN(CC)CCNc1ccc(N=Nc2cnc3ccccc3c2)c2ccccc12 please.
true

Record lookup: outcome of this test for COc1cc2c(c(OC)c1)C1c3ccccc3NC(=O)N1CC2 (centres undefined) ?
false

Could you please tell me the result logged for O=C(NO)c1ccc(Cn2c(=O)n(-c3ccccc3F)c(=O)c3ccccc32)cc1 in this assay?
false

In this assay, the call recorded for O=C(Cc1ccc(/C=C/C(=O)c2ncc[nH]2)cc1)Nc1ccc(S(F)(F)(F)(F)F)cc1 was what?
false

Status in this test for O=C(COc1ccc(/C=C2\Cc3ccc(Cl)cc3C2=O)cc1)Nc1nccs1 ?
false

So what was the verdict on CC1(O)CCC(Nc2cc(-c3ccc(C(F)(F)F)cc3)c(C#N)c3nc4ccccc4n23)CC1 (centres undefined) in this test?
false

Fill in: this test's call for Cn1nccc1Nc1nccc(-c2ccn([C@H](CO)c3ccc(Cl)c(F)c3)c(=O)c2)n1 is ___
false
